# Test system: HCC1569;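 further: TDF denotes transformed human dermal fibroblasts of mesenchymal origin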
# Method Summary: cell number relative to DMSO (% of DMSO); higher = more cells (less growth inhibition / toxicity)
# Condition Details: concentration: 10 µM; 24 h
Response key: Y means cell number >= 100; N means cell number < 100.

[
  {
    "Compound": "Nc1ccc(-c2cccc3c(=O)cc(N4CCOCC4)oc23)cc1",
    "System": "HCC1569",
    "Group Label": "N"
  },
  {
    "Compound": "CCn1cc(C(=O)O)c(=O)c2cc(F)c(N3CCNCC3)nc21",
    "System": "HCC1569",
    "Group Label": "Y"
  },
  {
    "Compound": "Cl.c1ccc(C2CCCC2NC2=NCCCCCCCCCCC2)cc1 (centres undefined) [MDL 12,330A hydrochloride]",
    "System": "HCC1569",
    "Group Label": "Y"
  }
]

Data request: Would you say Cl.Cl.O=S(=O)(NCCNCC=Cc1ccc(Br)cc1)c1cccc2cnccc12 [H-89, Dihydrochloride] shows cell number at minimum 100?
Data returned: N

Data request: Would you say `CS(=O)(=O)N1CCN(Cc2cc3nc(-c4cccc5[nH]ncc45)nc(N4CCOCC4)c3s2)CC1` shows cell number at minimum 100?
Data returned: N
